- Test system: HCC 2998
- experiment.summary: NCI tumour cell line growth inhibition, 48 h
The source made the active and inactive calls. Cut-off read from the data, not from the text of the source: active = GI50 up to about 1.1 µM and inactive = higher. Non-standard residues stand in square brackets, D forms with d. Residues, ends and D or L forms follow the SMILES beside them. ξ: configuration not given here. *: point of attachment. NMeF = CN[C@@H](Cc1ccccc1)C(=O)O; NMeV = CN[C@H](C(=O)O)C(C)C; ξNMeV = CNC(C(=O)O)C(C)C; Boc = CC(C)(C)OC(=O)*; OBn = c1ccc(CO*)cc1
GI50: recorded values

Some solved cases for reference:
O=C(Nc1ccccc1-c1nc2ccccc2[nH]c1=O)c1ccccc1: 15.4 µM (inactive)
O=NN(CCCl)C(=O)N[C@H]1CC[C@@H](CC(=O)O)CC1: > 100 µM (inactive)
C(=C\c1ccccc1)/COc1ccccc1C(N1CCOCC1)n1nc2ccccc2n1 (centres undefined): 17.5 µM (inactive)
COC(=O)C1(Cc2ccc3c(c2)CCC3)Cc2ccccc2C1O (centres undefined): 15.3 µM (inactive)
O=C1C[C@@H]2[C@@H](CCC23CCCC3)N1: > 100 µM (inactive)

Notebook: "O=C1C=CC(=O)c2c1ccc1c3ccccc3n(-c3ccccn3)c21" , GI50 read as > 100 µM (inactive)

Notebook: O=C1OC(=O)C2C1C1C(c3ccccc3)=C(c3ccccc3)C2(O)C2C(=O)OC(=O)C12 (centres undefined) , GI50 read as > 100 µM (inactive)

Notebook: CC(C)C(C(=O)N(C)[C@H](C(=O)N1CCC[C@H]1C(=O)N(C)[C@@H](Cc1ccccc1)C(=O)OCc1ccccc1)C(C)C)N(C)C(=O)[C@@H](NC(=O)OC(C)(C)C)C(C)C (some centres undefined) (Boc-V[ξNMeV][NMeV]P[NMeF]-OBn) , GI50 read as > 10 µM (inactive)

Notebook: "Clc1ccc(Nc2nc3ccccc3nc2-c2cccs2)cc1Cl" , GI50 read as 32.1 µM (inactive)

* * *

- Test system: M19-MEL
- experiment.summary: NCI tumour cell line growth inhibition, 48 h
The source made the active and inactive calls. Cut-off read from the data, not from the text of the source: active = GI50 up to about 1.1 µM and inactive = higher.
Response enum: true (1) (active), false (0) (inactive)

Below, 5 molecules whose answers are already recorded.
N#Cc1c(-c2ccc(Cl)cc2)c(-c2ccc(Cl)cc2)nn(CCOC(=O)CCC(=O)O)c1=O: false (0)
O=C1c2ccccc2C(=O)c2c(O)ccc(O)c21: false (0)
C[C@]12CCC3[C@@H](CC[C@@H]4c5nonc5CC[C@]34C)C1CCC2=O (stereo partly drawn): false (0)
CC(C)N(C(=O)C12C3C4C1C1C4(C#N)C3C12C#N)C(C)C (stereo not drawn): false (0)
Cc1ccc(NC(=O)CC/C(CC(=O)C(C)(C)C)=N/NC(=O)C(N)=O)cc1C: false (0)

Next up:
Ask: Which outcome was entered for the molecule "O=S1(=O)NN=C(NCc2ccc(Cl)cc2)c2ccccc21" in this test?
Result: false (0)

* * *

- Tested on: XF498
- experiment.summary: NCI tumour cell line growth inhibition, 48 h
Activity calls are given as the source filed them. Cut-off read from the data, not from the text of the source: active = GI50 up to about 1.1 µM and inactive = higher.
Response enum: 1.0 for active, 0.0 for inactive

COc1ccc(C(=O)O[C@H]2[C@@H]3C=CO[C@@H](OC4OC(CO)C(O)C(O)C4O)[C@@H]3[C@@]3(CO)O[C@@H]23)cc1O (stereo partly drawn): 0.0
O=[N+]([O-])c1cccc(C(O)/C(=N/O)c2nc3ccc(Cl)cc3nc2O)c1 (stereo not drawn): 0.0
c1ccc(/N=c2\snc3scc(-c4ccccc4)n23)cc1: 0.0
Cc1c2ccccc2c(=O)n2c(-c3ccccn3)cccc12: 0.0
c1ccc2c(NCCCCCCNc3cccc4ccccc34)cccc2c1: 0.0

Ask: Which outcome was entered for the compound "CS(=O)(=O)OCCN1CCN(C(=O)c2ccc(Cl)c3c(Nc4ccc(S(=O)(=O)N=C(N)N)cc4)c4ccccc4nc23)CC1" in this test?
Result: 0.0

Ask: Which outcome was entered for the compound C/C1=C\[C@H](C)C[C@H](C)OC(=O)C[C@H](c2ccc(O)cc2)NC(=O)[C@@H](Cc2c(Br)[nH]c3ccccc23)N(C)C(=O)[C@H](C)NC(=O)[C@@H](C)C1 [JASPAMIDE] in this test?
Result: 1.0

Ask: Which outcome was entered for the compound C[C@@H]1CC2(C[C@@H](C)C3[C@@H](CC4(C)CCCC5C6=CC(O)(CC[C@]34C)OC6=CC(=O)OC5(C)C)O2)OC1=O (stereo partly drawn) in this test?
Result: 0.0

* * *

GI50: recorded values
- Test system: HOP-62
- experiment.summary: NCI tumour cell line growth inhibition, 48 h
Active and inactive are the calls of the source. Rule as the data show it: active = GI50 up to about 1.1 µM and inactive = higher. Starred links: 1 amine or outer side, 2 acyl side, 3 side chain; linkers in the order of their positions; H or OH if unused. Positions of bridges follow the written chain, without caps; N, C: chain ends. Non-standard residues stand in square brackets, D forms with d. Residues, ends and D or L forms follow the SMILES beside them. Chains are numbered I, II in the order given. Actinocin(1to9) = Cc1c2oc3c(C)ccc(C(=O)[*:2])c3nc-2c(C(=O)[*:1])c(N)c1=O; NMeV = CN[CH](C(=O)O)C(C)C; Sar = CNCC(=O)O

Some solved cases for reference:
COc1ccc(/C=C2\CCC(CN(C)C)C2=O)cc1 (stereo unspecified): 12.2 µM (inactive)
CCC(C)C1NC(=O)C(NC(=O)c2c3nc4c(C(=O)NC5C(=O)NC(C(C)CC)C(=O)N6CCCC6C(=O)N(C)CC(=O)N(C)C(C(C)C)C(=O)OC5C)ccc(C)c4oc-3c(C)c(=O)c2N)C(C)OC(=O)C(C(C)C)N(C)C(=O)CN(C)C(=O)C2CCCN2C1=O (stereo unspecified) (I: TIP[Sar][NMeV] / II: TIP[Sar][NMeV]; ester I:1-I:C, II:1-II:C; linker I:N-II:N via Actinocin(1to9); configuration not given here): < 0.0001 µM (active)
COC(=O)c1nc(N)nc(O)c1CCCCCc1c(O)nc(N)nc1C(=O)OC: > 50 µM (inactive)
CC(=O)c1c2c(cc3c1CC1(Cc4ccccc4C1=O)C3)CCC2 (stereo unspecified): 30.4 µM (inactive)
COc1ccc2c(c1)OCC1=C2Oc2ccccc2C1: 55.3 µM (inactive)

Query "Cc1[nH]c2ncn3nc(C(Cl)(Cl)Cl)nc3c2c1Cc1ccccc1" on HOP-62; GI50 returned: > 100 µM (inactive)

Query "CN1CSC(=S)N(c2c3ccccc3nc3ccc(Br)cc23)C1" on HOP-62; GI50 returned: 7.87 µM (inactive)

* * *

- Test system: SF-295
- experiment.summary: NCI tumour cell line growth inhibition, 48 h
The source made the active and inactive calls. Cut-off read from the data, not from the text of the source: active = GI50 up to about 1.1 µM and inactive = higher.
Response enum: label 1 for active, label 0 for inactive

Below, 3 compounds whose answers are already recorded.
C/C1=C\[C@H](C)C[C@H](C)OC(=O)C[C@H](c2ccc(O)cc2)NC(=O)[C@@H](Cc2c(Br)[nH]c3ccccc23)N(C)C(=O)[C@H](C)NC(=O)[C@@H](C)C1 [JASPAMIDE]: label 1
O=C(NCCCCNCCCNC(=O)OCc1ccccc1)OCc1ccccc1: label 0
CCOC(=O)[C@@]1(C)CC(O)C(=O)N1C (stereo not given in full): label 0

Ask: Which outcome was entered for the compound O=c1nc(Oc2c(F)c(F)c(F)c(F)c2F)ccn1C1OC(CO)C(O)C1O (stereo not given) in this test?
Result: label 0

Ask: Which outcome was entered for the compound "CCN(CC)Cc1cc(Nc2ccnc3ccc4nn(C)nc4c23)ccc1O" in this test?
Result: label 0

Ask: Which outcome was entered for the compound "CCOC(=O)CCc1cccc2c1oc1c(CCNC(=O)OCC3c4ccccc4-c4ccccc43)cccc12" in this test?
Result: label 0

Ask: Which outcome was entered for the compound "O=C(N/N=C/C=C/c1ccccc1)c1ccccc1Nc1ccccc1C(=O)N/N=C/C=C/c1ccccc1" in this test?
Result: label 0

Ask: Which outcome was entered for the compound CCOC(=O)NNC1(SC)NC(=O)c2c(cc(Cl)oc2=O)O1 (stereo not given) in this test?
Result: label 0

Ask: Which outcome was entered for the compound "O=Cc1c(O)ccc2ccc(O)c(-c3c(O)ccc4ccc(O)cc34)c12" in this test?
Result: label 0

Ask: Which outcome was entered for the compound "Cc1cc2c(ccc3c(C)cc(=O)oc32)o1" in this test?
Result: label 0

Ask: Which outcome was entered for the compound "COC(=O)/C=C/c1cc2c(cc1-c1c(C(=O)O)cc(OC)c(OC)c1OC)OCO2" in this test?
Result: label 0

Ask: Which outcome was entered for the compound O=C(OCc1ccccc1)N1c2cc([N+](=O)[O-])ccc2C(=O)N2CCC[C@H]2C1O (stereo not given in full) in this test?
Result: label 0

Ask: Which outcome was entered for the compound "CS(=O)(=O)OCCN1CCN(C(=O)c2ccc(Cl)c3c(Nc4ccc(S(=O)(=O)N=C(N)N)cc4)c4ccccc4nc23)CC1" in this test?
Result: label 0

Ask: Which outcome was entered for the compound C[C@H](NC(=O)OC1C2C=CC(O)C1CC2)c1ccccc1 (stereo not given in full) in this test?
Result: label 0
